The reported measurements were obtained from patent US20250195520A1.

Assay: Plasma concentration by LC-MS/MS in mice bearing HCC827-ER1 tumors (PK/PD study)
Conditions: female, athymic nude, mouse, in vivo, 5 mg/kg, osimertinib plasma concentration, 24 hr post osimertinib (6 hr post (10b)); osimertinib 5 mg/kg PO; quantitation limit 2 nM
Description: In vivo modeling, treatment and data analysis. […] Dosing started ˜3 weeks after the subcutaneous implantation of the tumor cells. Dosing volume was 5 mL/kg for each compound, and was adjusted based on individual mouse weight. Dosing and sample harvesting followed the schedule below. There was a 6-hour interval between the morning dose and the afternoon dose, and tumor/plasma samples were harvested at three timepoints during the 24-hour dosing cycle. Blood collection for pharmacokinetic analysis. […]
metric: concentration at 24 h

What value of concentration at 24 h has been reported for the following molecule? "C=CC(=O)Nc1cc(Nc2nccc(-c3cn(C)c4ccccc34)n2)c(OC)cc1N(C)CCN(C)C"
< 2 nM
